- Study target: Human immunodeficiency virus type 1 reverse transcriptase (Human immunodeficiency virus 1, UniProt Q72547)
pIC50: −log10 of the molar value.
# if value of pIC50 reaches 6, tag TRUE; if it stays below, tag FALSE

INPUT: Hi, just wondering whether O=C1c2ccccc2C2(c3ccccc3)OCCCN12 (configuration not stated) shows pIC50 of 6 or higher.
OUTPUT: FALSE

INPUT: Hi, just wondering whether Cc1cccc(C23SCCN2C(=O)c2ccccc23)c1 (configuration not stated) shows pIC50 of 6 or higher.
OUTPUT: TRUE

INPUT: Hi, just wondering whether N#Cc1cccc(C23SCCN2C(=O)c2ccccc23)c1 (configuration not stated) shows pIC50 of 6 or higher.
OUTPUT: FALSE

INPUT: Hi, just wondering whether O=C1c2ccccc2C2(c3ccccn3)SCCN12 (configuration not stated) shows pIC50 of 6 or higher.
OUTPUT: FALSE

INPUT: Hi, just wondering whether O=C1c2c(ccc3ccccc23)C2(c3ccccc3)SCCN12 (configuration not stated) shows pIC50 of 6 or higher.
OUTPUT: FALSE

INPUT: Hi, just wondering whether O=C1c2ccccc2C2(c3ccccc3)CCCN12 (configuration not stated) shows pIC50 of 6 or higher.
OUTPUT: FALSE

INPUT: Hi, just wondering whether O=C1c2ccccc2C2(c3cc(Cl)cc(Cl)c3)SCCN12 (configuration not stated) shows pIC50 of 6 or higher.
OUTPUT: TRUE

INPUT: Hi, just wondering whether COc1ccc2c(c1)C1(c3ccccc3)SCCN1C2=O (configuration not stated) shows pIC50 of 6 or higher.
OUTPUT: FALSE

INPUT: Hi, just wondering whether O=C1c2ccccc2C2(c3cccc(O)c3)SCCN12 (configuration not stated) shows pIC50 of 6 or higher.
OUTPUT: FALSE

INPUT: Hi, just wondering whether O=C1c2ccncc2C2(c3ccccc3)SCCN12 (configuration not stated) shows pIC50 of 6 or higher.
OUTPUT: FALSE

INPUT: Hi, just wondering whether C[C@H]1CN2C(=O)c3ccccc3C2(c2ccccc2)O1 (some centres not stated) shows pIC50 of 6 or higher.
OUTPUT: FALSE
